Provenance of the data: patent US7148228B2

- System: MCF7 breast carcinoma cells
- MEASUREMENT_NOTES: MTS assay
- Format: cell-based
- CONDITION_CONTEXT: Homo sapiens, concentration giving 50% viable cell number
MEASURE_NAME: log10 of IC50 (log10 of the value in nM)
Transform log10 | Measure IC50 | Unit nM

Example results:
{"COMPOUND": "CCc1nn(Cc2ncc(C)c(OC)c2C)c2nc(N)nc(Cl)c12 [Example 29]", "SYSTEM_UNDER_TEST": "MCF7 breast carcinoma cells", "log10 of IC50": 3.00}
{"COMPOUND": "Cc1c[n+]([O-])c(Cn2nc(C)c3c(Cl)nc(N)nc32)c(C)c1Cl [Example 25]", "SYSTEM_UNDER_TEST": "MCF7 breast carcinoma cells", "log10 of IC50": 2.48}
{"COMPOUND": "COc1c(C)cnc(Cn2ncc3c(Cl)nc(N)nc32)c1C [Example 7]", "SYSTEM_UNDER_TEST": "MCF7 breast carcinoma cells", "log10 of IC50": 2.11}
{"COMPOUND": "Cc1cnc(Cn2nc(-c3ccccc3)c3c(Cl)nc(N)nc32)c(C)c1Cl [Example 33]", "SYSTEM_UNDER_TEST": "MCF7 breast carcinoma cells", "log10 of IC50": 2.78}
{"COMPOUND": "CCc1nn(Cc2ncc(C)c(Cl)c2C)c2nc(N)nc(Cl)c12 [Example 30]", "SYSTEM_UNDER_TEST": "MCF7 breast carcinoma cells", "log10 of IC50": 3.00}

We now examine a further compound.
Q. Hi! What's the reported log10 of IC50 for COc1c(C)cnc(Cn2nc(-c3ccccc3)c3c(Cl)nc(N)nc32)c1C [Example 32] on MCF7 breast carcinoma cells?
A. 1.90
